Measured selectivity ratio accompanies every entry in the list below.
# Protocol details: Selectivity index, ratio of IC50 for rat L6 cells to ratio of IC50 for trypomastigote form of Trypanosoma brucei rhodesiense STIB 900
# Type: toxicity, cell-based
# Recorded conditions: read-out: Selectivity Index
Assay metric: selectivity ratio

- COc1cc2c(cc1C(C)N[C@H](C)c1ccccc1)C=CC(C)(C)O2 (stereo not given in full): 7.85
- CCNC(C)c1cc2c(cc1OC)OC(C)(C)C=C2 (stereo not given): 7.71
- COc1cc2c(cc1C(C)NC(=O)Cc1ccccc1)C=CC(C)(C)O2 (stereo not given): 0.83
- COc1cc2c(cc1C(C)NCc1ccccc1)C=CC(C)(C)O2 (stereo not given): 8.83
- CC(NCc1ccccc1)c1cc2c(cc1O)OC(C)(C)C=C2 (stereo not given): 17.7
- COc1cc2c(cc1C(C)NCCCCc1ccccc1)C=CC(C)(C)O2 (stereo not given): 1.5
- COc1cc2c(cc1C(C)NCCCc1ccccc1)C=CC(C)(C)O2 (stereo not given): 1.05
- COc1cc2c(cc1C(C)OCc1ccccc1)C=CC(C)(C)O2 (stereo not given): 0.58
- COc1cc2c(cc1C(C)NC/C=C/c1ccccc1)C=CC(C)(C)O2 (stereo not given): 2.5
- CCCCNC(C)c1cc2c(cc1OC)OC(C)(C)CC2 (stereo not given): 7.54
- COc1cc2c(cc1C(C)NCCc1ccccc1)C=CC(C)(C)O2 (stereo not given): 6.93
- COc1cc2c(cc1C(C)N1CCCC1)C=CC(C)(C)O2 (stereo not given): 4.31
- COc1cc2c(cc1C(C)N[C@@H](C)c1ccccc1)C=CC(C)(C)O2 (stereo not given in full): 3.23
- COc1cc2c(cc1C(C)OCCc1ccccc1)C=CC(C)(C)O2 (stereo not given): 0.69
- COc1cc2c(cc1C(C)NCC1CCCCC1)C=CC(C)(C)O2 (stereo not given): 6.69
- COc1cc2c(cc1C(C)OC/C=C/c1ccccc1)C=CC(C)(C)O2 (stereo not given): 0.68
- COc1cc2c(cc1C(C)NC(=O)c1ccccc1)C=CC(C)(C)O2 (stereo not given): 1.45
- COc1cc2c(cc1C(C)NCc1ccccc1)CCC(C)(C)O2 (stereo not given): 3.08
- COc1ccc(CNC(C)c2cc3c(cc2OC)OC(C)(C)C=C3)cc1 (stereo not given): 6.13
- CC(NCCCc1ccccc1)c1cc2c(cc1O)OC(C)(C)C=C2 (stereo not given): 5.08
